# System: THP-1
# test.description: Cytotoxicity against human THP1 cells assessed as cell viability at 50 uM after 24 hrs by CCK-8 assay relative to untreated control
# Assay type: cell-based
# recorded.conditions: thp-1, 24 h
property.label: fold change (FC)

Recorded fold change (FC), per entry:
compound	study.system	observed.value
c1ccc2c(c1)CCc1ccccc1-2	THP-1	1.3
COc1cc2c(c(OC)c1O)-c1ccc(O)cc1CC2 [FLAVANTHRIDIN]	THP-1	1.3
c1ccc2c(c1)ccc1ccccc12 [PHENANTHRENE]	THP-1	1.2
COc1cc2ccc3cc(O)ccc3c2c(OC)c1O	THP-1	1.1
COc1ccc2c(c1O)CCc1cc(O)cc(OC)c1-2	THP-1	1.2
COc1cc(/C=C/C(=O)CC(=O)/C=C/c2ccc(O)c(OC)c2)ccc1O [CURCUMIN]	THP-1	0.9

Would you kindly look at the next entry?
Entry under test: `COc1cc(O)c2c(c1)CCc1c-2ccc(OC)c1O` . Its fold change (FC) was 1.2

###

# test.description: Antioxidant activity assessed as galvinoxyl free radical scavenging activity after 20 mins
# Format: functional
Collected IC50 values appear next to each entry.
Hi! Could you send only the number? It should be in µg/mL, unit omitted.

Below, 7 compounds whose answers are already recorded.
compound	value.unit	observed.value
COc1cc(O)c2c(c1)CCc1c-2ccc(OC)c1O	µg/mL	17.97
COc1cc(/C=C/C(=O)CC(=O)/C=C/c2ccc(O)c(OC)c2)ccc1O [CURCUMIN]	µg/mL	17.03
O=C1O[C@H]([C@@H](O)CO)C(O)=C1O [ASCORBIC ACID]	µg/mL	5.23
COc1cc2ccc3cc(O)ccc3c2c(OC)c1O	µg/mL	11.79
COc1ccc2c(c1O)CCc1cc(O)cc(OC)c1-2	µg/mL	17.04
Cc1cc(C(C)(C)C)c(O)c(C(C)(C)C)c1 [BUTYLATED HYDROXYTOLUENE]	µg/mL	43.7
COc1cc2c(c(OC)c1O)-c1ccc(O)cc1CC2 [FLAVANTHRIDIN]	µg/mL	11.66

API: the following record is the query input.
Oc1cc(O)c2c(c1)OC(c1ccc(O)c(O)c1)C(O)C2 (stereo not given) [CATECHIN] has a reported IC50 of 18.03

###

As shown below, each of these compounds has a reported inhibition at 10 µM value.
# System: THP-1
# test.description: Antiinflammatory activity in human THP1 cells assessed as inhibition of LPS-stimulated TNF-alpha release at 10 uM incubated for 1 hr prior to LPS challenge measured after 24 hrs by sandwich ELISA relative to untreated control
# Assay type: functional

Solved entries:
smiles	study.system	inhibition at 10 µM
c1ccc2c(c1)ccc1ccccc12	THP-1	0%
c1ccc2c(c1)CCc1ccccc1-2	THP-1	0%
COc1cc(O)c2c(c1)CCc1c-2ccc(OC)c1O	THP-1	30%

Bench note, THP-1: `COc1cc2c(c(OC)c1O)-c1ccc(O)cc1CC2` , inhibition at 10 µM reads 17.5%

The compound `COc1ccc2c(c1O)CCc1cc(O)cc(OC)c1-2` , tested on THP-1, showed inhibition at 10 µM of 31%

Tested system THP-1; inhibition at 10 µM recorded for `COc1cc(/C=C/C(=O)CC(=O)/C=C/c2ccc(O)c(OC)c2)ccc1O` was 38%

Item: `COc1cc2ccc3cc(O)ccc3c2c(OC)c1O` | System: THP-1 | inhibition at 10 µM: 15.5%

Measured values drawn from ChEMBL document CHEMBL2417407 for this set.
